Numbers sourced from patent US20180244785A1.

Target: T1, recombinant human FGFR4 Fc fusion (human, UniProt P22455 144-369)
T1 construct: 19 used; also called FGFR4c; not shown: Fc part of the FGFR-Fc fusion
T1 sequence: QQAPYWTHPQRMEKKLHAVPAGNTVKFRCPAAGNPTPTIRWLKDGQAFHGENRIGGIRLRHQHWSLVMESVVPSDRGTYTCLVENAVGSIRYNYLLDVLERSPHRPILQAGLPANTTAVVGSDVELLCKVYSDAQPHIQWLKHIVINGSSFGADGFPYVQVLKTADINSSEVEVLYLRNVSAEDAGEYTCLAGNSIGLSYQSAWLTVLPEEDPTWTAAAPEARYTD
Experiment: ELISA, scFv on coated FGFR-Fc
observation type: pEC50
pEC50 field: float, defined as -log10 of concentration (mol/L).

| binder | pEC50 |
| --- | --- |
| Ab4 (scFv format) (scFv, also called FGF#10) scFv: EVQLLESGGGVVQPGRSLRLSCAASGFTFSSYAMHWVRQAPGKGLEWVALISYDGSNKYYADSVKGRFTISRDNSKNTLYLQMNSLRAEDTAIYYCVRGAGRGYTYGPDGFDIWGQGTMVTVSSASTGGGSGGGGSDIVMTQTPLSLSVTPGQPASIFCKSSQSLIFGDGKTYLYWYLQKPGQPPRLLIYQVSNRFSGVPDRFSGSGAGTDFTLKISRVEAEDVGVYYCMQAKQFPWTFGQGTKLEIKRTVAAPSHHHHHH | 9.30 |

Ask: Fill blank: measured pEC50 of the binder Ab14 (scFv format) (scFv, also called FGF#24) scFv: EVQLVETGGGLIQPGGSLRLSCVASGFTVSSNYMSWVRQAPGKGLEWVSVIFSDGTTYYADSVKGRFTISRDNSKNTLYLQMNSLKTEDTAVYYCVAGPANGAYDIWGQGTMVTVSSASTGGGSGGGGSNIQMTQSPSILSASVGDRVTITCRASQSISNWLAWYQQKPGKAPKLLIFRASTLESGVPSRFSGSGSGAEFNLTISSLQPDDFATYYCQQYNVYSGTFGQGTKVEIKRTVAAPSHHHHHH is ____.
Reply: 7.14
